tested.target: Protein kinase C zeta type (Rattus norvegicus, UniProt P09217)
Sequence (P09217 whole entry): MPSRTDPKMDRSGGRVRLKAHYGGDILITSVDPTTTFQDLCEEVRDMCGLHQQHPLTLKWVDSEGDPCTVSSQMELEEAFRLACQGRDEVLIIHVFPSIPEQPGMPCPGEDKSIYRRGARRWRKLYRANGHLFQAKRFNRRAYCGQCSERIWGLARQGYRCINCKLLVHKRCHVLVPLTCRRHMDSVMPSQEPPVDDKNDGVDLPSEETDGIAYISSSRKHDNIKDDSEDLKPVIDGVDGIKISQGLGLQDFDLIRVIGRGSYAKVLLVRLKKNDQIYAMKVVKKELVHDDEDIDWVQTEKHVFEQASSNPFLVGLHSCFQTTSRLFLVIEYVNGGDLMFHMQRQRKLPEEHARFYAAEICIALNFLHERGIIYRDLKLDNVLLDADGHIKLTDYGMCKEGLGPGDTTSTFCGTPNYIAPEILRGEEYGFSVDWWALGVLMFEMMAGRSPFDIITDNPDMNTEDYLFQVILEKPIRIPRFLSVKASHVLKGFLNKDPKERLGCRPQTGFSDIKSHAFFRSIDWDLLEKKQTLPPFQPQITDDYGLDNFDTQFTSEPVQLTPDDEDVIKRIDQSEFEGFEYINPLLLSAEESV
assay.info: Inhibition of Protein kinase C isolated from rat brain
reported.metric: IC50 (µM)

molecule | tested.target | IC50 / µM
CCCCCCCCCCC#Cc1cccc([C@@H](O)[C@@H](N)CO)c1 | Protein kinase C zeta type (Rattus norvegicus, UniProt P09217) | 22.2
CCCCCCCCCCCCC/C=C/[C@@H](O)[C@@H](N)CO [(E,2S,3R)-2-azanyloctadec-4-ene-1,3-diol] | Protein kinase C zeta type (Rattus norvegicus, UniProt P09217) | 23.4
